All figures here come from patent US7902187B2.

# TESTED_ON: Jak3 (Homo sapiens, UniProt P52333)
# Sequence (P52333 508-1124): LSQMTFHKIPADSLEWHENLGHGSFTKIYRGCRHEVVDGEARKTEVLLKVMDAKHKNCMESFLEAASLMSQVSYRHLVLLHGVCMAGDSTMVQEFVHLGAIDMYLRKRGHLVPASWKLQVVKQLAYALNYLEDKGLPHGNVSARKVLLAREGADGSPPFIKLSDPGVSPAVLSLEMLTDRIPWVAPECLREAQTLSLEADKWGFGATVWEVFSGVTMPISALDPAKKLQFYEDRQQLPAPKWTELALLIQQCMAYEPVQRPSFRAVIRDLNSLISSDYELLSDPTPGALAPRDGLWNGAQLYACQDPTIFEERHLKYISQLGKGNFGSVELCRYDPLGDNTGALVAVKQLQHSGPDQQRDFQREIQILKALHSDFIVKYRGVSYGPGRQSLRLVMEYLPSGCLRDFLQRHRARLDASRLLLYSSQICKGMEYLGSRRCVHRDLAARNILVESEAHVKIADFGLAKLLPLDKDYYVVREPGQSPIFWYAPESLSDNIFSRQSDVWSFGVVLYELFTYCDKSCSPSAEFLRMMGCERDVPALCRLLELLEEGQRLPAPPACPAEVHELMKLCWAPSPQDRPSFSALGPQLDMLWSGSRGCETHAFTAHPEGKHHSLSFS
pIC50: −log10 of the molar value.
MEASURED_ENDPOINT: pIC50

Consider the reported pIC50 for these compounds:
                                   compound                            tested_on  measured_endpoint  test_value
0  N#Cc1ccc2ncn(-c3nc(N4CC(F)(F)C4)c4[nH]c(=O)n([C@H]5CC[C@H](O)CC5)c4n3)c2c1  Jak3 (Homo sapiens, UniProt P52333)              pIC50      > 7.00
1  Cn1c(=O)n([C@H]2CC[C@H](O)CC2)c2nc(-n3cnc4ccc(F)cc43)nc(N3CCC3)c21  Jak3 (Homo sapiens, UniProt P52333)              pIC50      > 7.00
2  O=c1[nH]c2c(-c3ccncc3)nc(-n3cnc4ccc(F)cc43)nc2n1C1CCOCC1  Jak3 (Homo sapiens, UniProt P52333)              pIC50      > 7.00

For the compound shown here, `O=c1[nH]c2c(-c3ccccc3Cl)nc(-n3cnc4ccc(F)cc43)nc2n1C1CCOCC1` , give the reported pIC50.
< 6.00

Fill in: pIC50 of `O=c1[nH]c2c(N3CCC3)nc(-n3cnc4ccc(Cl)cc43)nc2n1C1CCOCC1` is ___
> 7.00

Which pIC50 is listed for `O=c1[nH]c2c(C3CCC3)nc(-n3cnc4ccc(F)cc43)nc2n1C1CCOCC1` ?
6.00 to 7.00

If you can, please state the reported pIC50 value of `Cn1c(=O)n(C2CCOCC2)c2nc(-n3cnc4ccc(Cl)cc43)nc(N3CC(F)(F)C3)c21` .
> 7.00

# pIC50 lookup, item `N#Cc1ccc2ncn(-c3nc(NCC4CC4)c4[nH]c(=O)n(C5CCOCC5)c4n3)c2c1`
> 7.00

# query: pIC50 of entry `N#Cc1ccc2ncn(-c3nc(N4CCS(=O)(=O)CC4)c4[nH]c(=O)n(C5CCOCC5)c4n3)c2c1`
> 7.00

Quick check: pIC50 of `N#Cc1ccc2ncn(-c3nc(NCCCN4CCCCC4)c4[nH]c(=O)n(C5CCOCC5)c4n3)c2c1` ?
> 7.00
